Recorded IC50 values for a group of compounds are listed next.
Test system: Rec-1
method: Anti Proliferation Assay (MTS), Rec-1
Assay type: cell-based
condition.description: Homo sapiens, Rec1, Rec-1 cells, 72 hours treatment

>  <compound>
CN1C[C@H](CNc2ncc3c4[nH]nc(N)c4c(=O)n(-c4ccccc4)c3n2)Oc2cc(F)ccc21

>  <unit.of.measure>
µM

>  <IC50>
14.7

$$$$
>  <compound>
Cc1[nH]nc2c1c(=O)n(-c1ccccc1)c1nc(NC[C@H]3COc4ccccc4O3)ncc21

>  <unit.of.measure>
µM

>  <IC50>
6.8

$$$$
>  <compound>
CN(C[C@H]1CN(C)c2ccccc2O1)c1ncc2c3[nH]nc(N)c3c(=O)n(-c3ccccc3F)c2n1

>  <unit.of.measure>
µM

>  <IC50>
2.6

$$$$
>  <compound>
CN(CC1COc2ccccc2O1)c1ncc2c3[nH]nc(N)c3c(=O)n(-c3ccccc3)c2n1 (stereo not shown)

>  <unit.of.measure>
µM

>  <IC50>
6.2

$$$$
>  <compound>
CN1C[C@H](CNc2ncc3c4n[nH]cc4c(=O)n(-c4ccccc4F)c3n2)Oc2ccccc21

>  <unit.of.measure>
µM

>  <IC50>
1.4

$$$$
>  <compound>
Cc1c2c(=O)[nH]nc-2c2cnc(NC[C@H]3COc4ccccc4O3)nc2n1-c1ccccc1

>  <unit.of.measure>
µM

>  <IC50>
23.7

$$$$
>  <compound>
CN1CC(CNc2ncc3c4n[nH]cc4c(=O)n(-c4ccccc4F)c3n2)Oc2ccccc21 (stereo not shown)

>  <unit.of.measure>
µM

>  <IC50>
2.6

$$$$

* * *

system.under.test: Full-length inactive BTK (Homo sapiens, UniProt Q06187)
Sequence (Q06187 whole entry): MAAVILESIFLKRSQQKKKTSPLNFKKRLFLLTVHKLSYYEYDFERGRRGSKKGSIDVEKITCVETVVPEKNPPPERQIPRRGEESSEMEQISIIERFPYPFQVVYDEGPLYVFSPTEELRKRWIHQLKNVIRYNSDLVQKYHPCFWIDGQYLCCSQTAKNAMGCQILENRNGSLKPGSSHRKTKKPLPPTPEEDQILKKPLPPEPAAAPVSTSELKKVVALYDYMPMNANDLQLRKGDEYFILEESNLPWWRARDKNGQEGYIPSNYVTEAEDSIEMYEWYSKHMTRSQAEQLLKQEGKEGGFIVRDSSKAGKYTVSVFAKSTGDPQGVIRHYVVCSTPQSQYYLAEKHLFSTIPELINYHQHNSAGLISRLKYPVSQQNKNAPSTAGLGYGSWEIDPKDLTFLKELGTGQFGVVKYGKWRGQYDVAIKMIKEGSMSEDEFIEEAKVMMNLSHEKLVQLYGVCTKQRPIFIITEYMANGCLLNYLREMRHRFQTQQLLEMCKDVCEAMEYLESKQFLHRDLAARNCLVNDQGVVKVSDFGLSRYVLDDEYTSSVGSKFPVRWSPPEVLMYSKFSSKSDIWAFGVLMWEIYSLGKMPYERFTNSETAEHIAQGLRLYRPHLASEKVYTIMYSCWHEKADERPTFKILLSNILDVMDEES
method: BTK Kinase Activity Assay
condition.description: AlphaScreen, 25 μM ATP, 30 minute pre-incubation

>  <compound>
CN1C[C@H](CNc2ncc3c4[nH]nc(N)c4c(=O)n(-c4ccccc4)c3n2)Oc2cc(F)ccc21

>  <unit.of.measure>
nM

>  <IC50>
4.6

$$$$
>  <compound>
O=c1c2c[nH]nc2c2cnc(NCC3COc4ccccc4O3)nc2n1-c1ccccc1 (centres unmarked)

>  <unit.of.measure>
nM

>  <IC50>
240

$$$$
>  <compound>
O=c1c2c[nH]nc2c2cnc(NCC3CNc4ccccc4O3)nc2n1-c1ccccc1F (centres unmarked)

>  <unit.of.measure>
nM

>  <IC50>
33

$$$$
>  <compound>
Cc1c2c(=O)[nH]nc-2c2cnc(NC[C@H]3COc4ccccc4O3)nc2n1-c1ccccc1

>  <unit.of.measure>
nM

>  <IC50>
33

$$$$
>  <compound>
CN1C[C@H](CNc2ncc3c4n[nH]cc4c(=O)n(-c4ccccc4F)c3n2)Oc2ccccc21

>  <unit.of.measure>
nM

>  <IC50>
14

$$$$
